# TARGET_DESC: T1, MCSF (Homo sapiens, UniProt P09603)
# T1 sequence (P09603 33-255 limits assumed): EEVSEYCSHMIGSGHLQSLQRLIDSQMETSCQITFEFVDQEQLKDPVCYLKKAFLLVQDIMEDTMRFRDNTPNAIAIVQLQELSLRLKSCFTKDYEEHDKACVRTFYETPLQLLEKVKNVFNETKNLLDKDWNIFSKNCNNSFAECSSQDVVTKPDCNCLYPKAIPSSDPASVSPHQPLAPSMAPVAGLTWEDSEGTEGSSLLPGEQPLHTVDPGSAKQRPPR
# PROCEDURE_TEXT: Biacore analysis of Human Engineered RX1 antibodies, M-CSF immobilized (Example 13)
# Type: binding
# ASSAY_CONTEXT: Table 11, 25° C.
ASSAY_READOUT: kd (s⁻¹)
Enter your answer as a number in s⁻¹; do not include the unit.

heRX1-3.G2: Human Engineered RX1: light chain Low + Mod Risk (Kabat), heavy chain Low Risk (Kabat), Gamma 2 (antibody, left off: a dimerising Fc or GST) heavy: DVQLQESGPGLVKPSQTLSLTCTVTDYSITSDYAWNWIRQFPGKKLEWMGYISYSGSTSYNPSLKSRITISRDTSKNQFSLQLNSVTAADTATYYCASFDYAHAMDYWGQGTTVTVSS light: EIVLTQSPGTLSVSPGERVTFSCRASQSIGTSIHWYQQKTGQAPRLLIKYASERATGIPDRFSGSGSGTDFTLTISRVESEDFADYYCQQINSWPTTFGQGTKLEIKRT : 0.00118

Please examine the following record next.
Problem: Fill blank: measured kd of the molecule heRX1-2.G2: Human Engineered RX1: light chain Low Risk (Kabat), heavy chain Low + Mod Risk (Kabat), Gamma 2 (antibody, left off: a dimerising Fc or GST) heavy: QVQLQESGPGLVKPSQTLSLTCTVSDYSITSDYAWNWIRQFPGKGLEWMGYISYSGSTSYNPSLKSRITISRDTSKNQFSLQLNSVTAADTAVYYCASFDYAHAMDYWGQGTTVTVSS light: EIVLTQSPGTLSVSPGERVTFSCRASQSIGTSIHWYQQKTGQSPRLLIKYASERISGIPDRFSGSGSGTDFTLTISRVESEDFADYYCQQINSWPTTFGQGTKLEIKRT is ____.
Solution: 0.00165
